Some molecules, each annotated with its measured pIC50.
tested on: HGC-27; assay: Cytotoxicity against human HGC27 cells after 48 hrs by MTT assay; format: functional, cell-based; conditions: HGC-27, 48 h
The read-out pIC50 is expressed as -log10 of concentration in moles per litre.

**Query** Tell me the measured pIC50 of C=CCc1ccc(OCc2cn(Cc3cc4cc(OC)c(OC)cc4c4cc(OC)c(OC)cc34)nn2)c(OC)c1 , please.
**Result** 5.12

**Query** Report pIC50 for COc1cc2cc(Cn3cc(CN4C(=O)c5ccc(C)cc5C4=O)nn3)c3cc(OC)c(OC)cc3c2cc1OC please.
**Result** 5.46
